Below, each entry is listed alongside its reported Potency.
experiment: qHTS Assay for Modulators of miRNAs and/or Inhibitors of miR-21; settings: HeLa miR-21-FLuc reporter, luciferase luminescence, 48 h; actives lower the signal; further: potency means the concentration at half of the fitted maximal effect; nearly all actives have a fitted effect of over 55% in size
About 3,300 (0.97%) of roughly 340,000 compounds were called active. About 9% were inconclusive and are not listed. The list shows a part of the results.
OBSERVATION TYPE: Potency

> print(dat)
                                    compound  observation.type        measurement
 1                 COC(=O)c1sc(-c2cccs2)cc1N           Potency   8.26 µM (active)
 2     CC(C)c1ccc(CNc2n[nH]c(-c3ccco3)n2)cc1           Potency   2.07 µM (active)
 3           CN(C)/C=N/c1nc2ccc3c(c2s1)CCCC3           Potency   2.33 µM (active)
 4  C/C(=N\NC(=O)c1ccccc1)c1ccc(N2CCCCC2)cc1           Potency   6.56 µM (active)
 5             COc1ccc(C(=O)NCCSC2CCCCC2)cc1           Potency   7.36 µM (active)
 6  COc1ccc(C(=O)N/N=C(/C)c2ccc(N3CCCCC3)cc2)cc1           Potency   8.26 µM (active)
 7   Cc1nc(NC(=O)C2CCCC2)sc1Cc1ccc2c(c1)OCO2           Potency   9.27 µM (active)
 8   CCOC(=O)N/N=C/c1c(C)nn(-c2ccccc2Cl)c1Cl           Potency   7.36 µM (active)
 9  CCOc1cccc2c1OC1(CCCCC1)N1N=C(c3cccnc3)CC21 (stereo unspecified)           Potency   16.5 µM (active)
10  CC1CN(C(=O)c2cccc(COc3ccc(Br)cc3)c2)CC(C)O1 (stereo unspecified)           Potency   2.93 µM (active)
11      COc1ccc(OCc2cccc(C(=O)N3CCCC3)c2)cc1           Potency   1.47 µM (active)
12          COc1cc(/C=N/Nc2nc3ccccc3s2)ccc1O           Potency   2.93 µM (active)
13   CCc1ccc(NC(=O)c2n[nH]c(=O)c3ccccc23)cc1           Potency   1.04 µM (active)
14           COCCCNCCCCOc1ccc(OCc2ccccc2)cc1           Potency   18.5 µM (active)
15  O=C(Nc1ccc2c(c1)OCO2)c1n[nH]c(=O)c2ccccc12           Potency   5.85 µM (active)
16    BrC(=C\c1ccccc1)/C=N/Nc1nc2ccccc2[nH]1           Potency   16.5 µM (active)
17  O=C(Nc1ccccc1[N+](=O)[O-])C1COc2ccccc2O1 (stereo unspecified)           Potency   3.29 µM (active)
18  Cc1cc(Cl)c2oc(C(=O)N(C)CC3CCOCC3)c(C)c2c1           Potency   14.7 µM (active)
19     O=C(c1ccc(-c2cccc(Cl)c2Cl)o1)N1CCOCC1           Potency   4.65 µM (active)
20                 C(=N\N=C\c1cccs1)/c1cccs1           Potency   5.21 µM (active)
21       COc1cc(/C=C/c2nc3ccccc3s2)cc(OC)c1O           Potency   13.1 µM (active)
22           CCOC(=O)c1sc(-c2ccc(OC)cc2)cc1N           Potency  0.927 µM (active)
23   CC1=C(c2ccc(C)cc2)[N+](=O)C(C)(C)N1[O-]           Potency   3.69 µM (active)
24           CCCCCC(=O)N/N=C/c1ccc(N(C)C)cc1           Potency   13.1 µM (active)
25  O=C(c1ccc(-c2ccc([N+](=O)[O-])cc2)o1)N1CCCCC1           Potency   1.85 µM (active)
26       Cc1nn(-c2ccccc2)c(Cl)c1/C=N/NC(N)=O           Potency   16.5 µM (active)
27  O=C(c1ccc(-c2cccc(C(F)(F)F)c2)o1)N1CCOCC1           Potency   14.7 µM (active)
28          Clc1ccc(-c2cnc(Oc3ccccc3)nc2)cc1           Potency   2.07 µM (active)
29         COc1ccc(C(=O)NC(=S)Nc2ccccc2F)cc1           Potency   1.04 µM (active)
30  CN1CCN(C(=S)c2ccc(-c3cccc(Cl)c3Cl)o2)CC1           Potency   5.21 µM (active)
31           O=C(N/N=C\c1ccco1)Nc1cccc(Cl)c1           Potency   1.85 µM (active)
32          COCCCN(C(C)=O)c1nc(-c2ccccc2)cs1           Potency   6.56 µM (active)
33   COc1ccc(C(=O)O/N=C(\N)c2cccc(C)c2)cc1OC           Potency   8.26 µM (active)
34        O=C(c1ccc(F)cc1)c1ccc(N2CCCCC2)cc1           Potency   4.65 µM (active)
35         S=C(c1ccc(-c2ccccc2Cl)o1)N1CCCCC1           Potency   3.29 µM (active)
36         O=C(NC(=S)NC1CCCCCC1)c1cncc(Br)c1           Potency   9.27 µM (active)
